Give MMP-2 Ratio (IC50 test compound/IC50 standard) for every item shown.
target: UniProtKB P08253; assay: MMP-2 inhibition in vitro, octapeptide substrate, HPLC; assay type: biochemical; details: standard 1,10-phenanthroline
Sequence (P08253 110-660, species assumed): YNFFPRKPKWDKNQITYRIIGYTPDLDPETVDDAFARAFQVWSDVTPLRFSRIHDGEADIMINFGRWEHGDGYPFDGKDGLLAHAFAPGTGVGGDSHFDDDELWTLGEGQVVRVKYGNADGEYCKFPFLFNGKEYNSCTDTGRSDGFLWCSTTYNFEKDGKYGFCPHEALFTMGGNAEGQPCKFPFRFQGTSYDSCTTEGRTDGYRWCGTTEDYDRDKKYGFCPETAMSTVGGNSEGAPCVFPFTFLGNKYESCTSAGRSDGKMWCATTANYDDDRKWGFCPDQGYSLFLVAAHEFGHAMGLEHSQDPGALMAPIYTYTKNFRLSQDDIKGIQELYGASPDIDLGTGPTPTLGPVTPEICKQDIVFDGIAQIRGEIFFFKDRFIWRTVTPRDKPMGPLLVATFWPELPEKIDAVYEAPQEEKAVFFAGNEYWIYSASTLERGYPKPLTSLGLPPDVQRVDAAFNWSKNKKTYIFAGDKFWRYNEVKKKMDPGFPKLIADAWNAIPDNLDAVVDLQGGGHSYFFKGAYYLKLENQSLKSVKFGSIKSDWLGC
Numbers only.

Worked examples, 2 molecules total:
Molecule	Experimental system	Recorded value
COC(=O)C(C(=O)/C=C/c1ccc(O)cc1)C(=O)/C=C/c1ccc(O)cc1	UniProtKB P08253	1.0
O=C(/C=C/c1ccc(O)cc1)C(C(=O)/C=C/c1ccc(O)cc1)C(=O)Nc1ccccc1	UniProtKB P08253	1.8

// next item, MMP-2 Ratio (IC50 test compound/IC50 standard) requested
Query: UniProtKB P08253 / MMP-2 Ratio (IC50 test compound/IC50 standard) / c1cnc2c(c1)ccc1cccnc12 [1,10-phenanthroline, 1,10-O-phenanthroline, reference compound] : value?
Result: 1.0

----------
target: UniProt P08253; experiment: MMP-2 inhibition in vitro, octapeptide substrate, HPLC; assay type: biochemical; conditions: read-out: MMP-2 Maximum Inhibition @100 μM
Endpoint name: inhibition at 100 µM (%)
Give bare numbers, in %.

Worked examples, 5 compounds total:
Compound	Recorded value
c1cnc2c(c1)ccc1cccnc12 [1,10-phenanthroline, 1,10-O-phenanthroline, reference compound]	60
COC(=O)C(C(=O)/C=C/c1ccc(O)cc1)C(=O)/C=C/c1ccc(O)cc1	60
O=C(/C=C/c1ccc(O)cc1)C(C(=O)/C=C/c1ccc(O)cc1)C(=O)Nc1ccccc1	45
COc1cc(/C=C/C(=O)CC(=O)/C=C/c2ccc(O)c(OC)c2)ccc1O	54
COc1cc(/C=C/C(=O)C(C(=O)/C=C/c2ccc(O)c(OC)c2)C(=O)Nc2ccccc2)ccc1O	53

// next item, inhibition at 100 µM requested
Query: # input compound: COc1cc(/C=C/C(=O)CC(=O)/C=C/c2ccc(N(C)C)cc2)ccc1O ; wanted: its inhibition at 100 µM
Result: 36

----------
target: MMP-13 (Collagenase-3) (Homo sapiens (Human)); test: MMP-13 inhibition in vitro, octapeptide substrate, HPLC; assay type: biochemical; conditions: read-out: MMP-13 Maximum Inhibition @100 μM
Endpoint name: inhibition at 100 µM (%)
Give bare numbers, in %.

Molecule	inhibition at 100 µM, %
CN(C)c1ccc(/C=C/C(=O)C(C(=O)/C=C/c2ccc(N(C)C)cc2)C(=O)Nc2ccccc2)cc1	53
COc1cc(/C=C/C(=O)C(C(=O)/C=C/c2ccc(O)c(OC)c2)C(=O)Nc2ccccc2)ccc1O	100

// next item, inhibition at 100 µM requested
Query: # input compound: O=C(/C=C/c1ccc(O)cc1)C(C(=O)/C=C/c1ccc(O)cc1)C(=O)Nc1ccccc1 ; wanted: its inhibition at 100 µM
Result: 77

----------
target: UniProtKB P45452; experiment: MMP-13 inhibition in vitro, octapeptide substrate, HPLC; assay type: biochemical; details: standard 1,10-phenanthroline
Endpoint name: MMP-13 Ratio (IC50 test compound/IC50 standard)
One number for each entry.

Worked examples, 3 compounds total:
Compound	Recorded value
c1cnc2c(c1)ccc1cccnc12 [1,10-phenanthroline, 1,10-O-phenanthroline, reference compound]	1.0
COc1cc(/C=C/C(=O)CC(=O)/C=C/c2ccc(N(C)C)cc2)ccc1O [Compound 4]	62.5
COC(=O)C(C(=O)/C=C/c1ccc(O)cc1)C(=O)/C=C/c1ccc(O)cc1 [Compound 3]	2.0

// next item, MMP-13 Ratio (IC50 test compound/IC50 standard) requested
Query: UniProtKB P45452 / MMP-13 Ratio (IC50 test compound/IC50 standard) / CN(C)c1ccc(/C=C/C(=O)C(C(=O)/C=C/c2ccc(N(C)C)cc2)C(=O)Nc2ccccc2)cc1 [Compound 8] : value?
Result: 11.3
